Test: Inhibition of human FRbeta expressed in Chinese Hamster MTXRII-OuaR2-4 R2 cells assessed as reduction in cell proliferation after 96 hrs by CellTiter-blue assay
For each record, write down the corresponding pIC50.
Numbers only, as −log10 of the molar value.

Consider the worked cases shown below.
Nc1nc2sc(CCCCc3ccc(C(=O)N[C@@H](CCC(=O)O)C(=O)O)s3)cc2c(=O)[nH]1 8.77
Nc1nc2sc(CCCc3ccc(C(=O)N[C@@H](CCC(=O)O)C(=O)O)s3)cc2c(=O)[nH]1 8.74
Nc1nc2sc(CCCc3cc(C(=O)N[C@@H](CCC(=O)O)C(=O)O)cs3)cc2c(=O)[nH]1 9.14

For the next question, use this compound.
Lab book: pIC50 of Nc1nc2sc(CCCCc3ccc(C(=O)N[C@@H](CCC(=O)O)C(=O)O)cc3)cc2c(=O)[nH]1 noted as 7.70
